Provenance of the data: patent US7186825B2

system: human lung cancer cells A549; assay: MTT assay, survival/growth of cultured human lung cancer cells A549; assay type: cell-based; settings: Homo sapiens, read-out: concentration needed for 50% growth inhibition (ID50); Table 3; A549
measurement.label: IC50

[[record]]
compound = "CCNCCCCNC/C=C\\CNCCCCNCCCCNCC"
target = "human lung cancer cells A549"
measured_value = "> 31.2 µM"


Task: Form field: reported IC50 of CCNCCCCNC/C=C/CNCCCCNCC
Result: 0.15 µM

Task: Look up IC50: CCNC1CCCC1CNCCCNCC1CCCC1NCC (stereo not drawn)
Result: > 31.2 µM

Task: Consider the compound CNCCCNCC#CCNCCCNC and give its measured IC50.
Result: > 31.2 µM

Task: What measured IC50 goes with CCNCCCNCC#CCNCCCNCC ?
Result: > 31.2 µM

Task: Please give the measured IC50 for this compound: CCNCCCCNCCCCNCCCCNCCCCNCC [BE-4444, reference compound]
Result: 0.4 µM

Task: Which IC50 value belongs to CCNCCCCNCC#CCNCCCCNCC ?
Result: > 31.2 µM

Task: Query (compound): CNCCCNC[C@H]1CC[C@H]1CNCCCNC ; field requested: IC50
Result: > 31.2 µM

Task: May I ask what IC50 has been recorded for CCNC/C=C\CNC/C=C\CNC/C=C\CNC/C=C\CNCC ?
Result: > 31.2 µM
